method: Tmax in Beagle dog at 4 mg/kg,iv measured upto 24 hrs
Type: ADME, organism-based, Canis lupus familiaris
condition-label: in vivo
measured-quantity: Tmax (min)

compound_structure=CC(=O)O[C@@]12CO[C@@H]1C[C@H](O)[C@@]1(C)C(=O)[C@H](O)C3=C(C)[C@@H](OC(=O)[C@H](OC(=O)CCC(=O)NCCCC[C@H](NC(=O)CC[C@@H](NC(=O)[C@H](C)NC(=O)/C=C/c4ccc(F)cc4Cl)C(N)=O)C(=O)O)[C@@H](NC(=O)OC(C)(C)C)c4ccccc4)C[C@@](O)([C@@H](OC(=O)c4ccccc4)[C@H]21)C3(C)C units_text=min obs_value=30

---

method: Tmax in Beagle dog at 1 mg/kg,iv measured upto 24 hrs
Format: ADME, organism-based, Canis lupus familiaris
condition-label: in vivo
measured-quantity: Tmax (min)

compound_structure=CC(=O)O[C@@]12CO[C@@H]1C[C@H](O)[C@@]1(C)C(=O)[C@H](O)C3=C(C)[C@@H](OC(=O)[C@H](OC(=O)CCC(=O)NCCCC[C@H](NC(=O)CC[C@@H](NC(=O)[C@H](C)NC(=O)/C=C/c4ccc(F)cc4Cl)C(N)=O)C(=O)O)[C@@H](NC(=O)OC(C)(C)C)c4ccccc4)C[C@@](O)([C@@H](OC(=O)c4ccccc4)[C@H]21)C3(C)C units_text=min obs_value=30

---

method: MRT (0 to infinity) in male rat at 8 mg/kg,iv measured upto 24 hrs
Format: ADME, organism-based
condition-label: in vivo
measured-quantity: MRT inf

compound_structure=CC(=O)O[C@@]12CO[C@@H]1C[C@H](O)[C@@]1(C)C(=O)[C@H](O)C3=C(C)[C@@H](OC(=O)[C@H](OC(=O)CCC(=O)NCCCC[C@H](NC(=O)CC[C@@H](NC(=O)[C@H](C)NC(=O)/C=C/c4ccc(F)cc4Cl)C(N)=O)C(=O)O)[C@@H](NC(=O)OC(C)(C)C)c4ccccc4)C[C@@](O)([C@@H](OC(=O)c4ccccc4)[C@H]21)C3(C)C obs_value="37.9 min"

---

method: AUC (0-t) in male Beagle dog at 4 mg/kg,iv measured upto 24 hrs
Assay type: ADME, organism-based, Canis lupus familiaris
Parameters: dose 4 mg/kg, time < 24 hrs, route iv
condition-label: in vivo
measured-quantity: AUC(0-t) at 24 h (ng·h/mL)

compound_structure=CC(=O)O[C@@]12CO[C@@H]1C[C@H](O)[C@@]1(C)C(=O)[C@H](O)C3=C(C)[C@@H](OC(=O)[C@H](OC(=O)CCC(=O)NCCCC[C@H](NC(=O)CC[C@@H](NC(=O)[C@H](C)NC(=O)/C=C/c4ccc(F)cc4Cl)C(N)=O)C(=O)O)[C@@H](NC(=O)OC(C)(C)C)c4ccccc4)C[C@@](O)([C@@H](OC(=O)c4ccccc4)[C@H]21)C3(C)C obs_value=15200

---

method: Half life in rat at 8 mg/kg,iv measured upto 24 hrs
Assay type: ADME, organism-based
condition-label: in vivo
measured-quantity: half-life

compound_structure=CC(=O)O[C@@]12CO[C@@H]1C[C@H](O)[C@@]1(C)C(=O)[C@H](O)C3=C(C)[C@@H](OC(=O)[C@H](OC(=O)CCC(=O)NCCCC[C@H](NC(=O)CC[C@@H](NC(=O)[C@H](C)NC(=O)/C=C/c4ccc(F)cc4Cl)C(N)=O)C(=O)O)[C@@H](NC(=O)OC(C)(C)C)c4ccccc4)C[C@@](O)([C@@H](OC(=O)c4ccccc4)[C@H]21)C3(C)C obs_value="18.3 min"
